Give IC50 for every item shown.
Test system: Burkitt's lymphoma cells (Ramos)
Assay: In vitro potency, CellTiter-Glo growth inhibition, Ramos
Type: cell-based
Conditions: Homo sapiens, 96 h, read-out: IC50 Ramos
Report only the number, with the unit nM understood.

Recorded result, `CC[C@@]1(O)C(=O)OCc2c1cc1n(c2=O)Cc2c-1nc1cc3c(cc1c2CNC(=O)[C@@H](N)CC(C)C)OCO3` , IC50: 2

Recorded result, `CC[C@@]1(O)C(=O)OCc2c1cc1n(c2=O)Cc2c-1nc1cc3c(cc1c2CNC(=O)[C@@H](N)CCC(N)=O)OCO3` , IC50: 34

Recorded result, `CC[C@@]1(O)C(=O)OCc2c1cc1n(c2=O)Cc2c-1nc1cc3c(cc1c2CNC(=O)[C@@H](N)CCSC)OCO3` , IC50: 4

Recorded result, `CC[C@@]1(O)C(=O)OCc2c1cc1n(c2=O)Cc2c-1nc1cc3c(cc1c2CNC(=O)[C@@H](N)CCCCN)OCO3` , IC50: 12

Recorded result, `CC[C@@]1(O)C(=O)OCc2c1cc1n(c2=O)Cc2c-1nc1cc3c(cc1c2CNC(=O)C(C)(C)N)OCO3` , IC50: 1

Recorded result, `CC[C@@]1(O)C(=O)OCc2c1cc1n(c2=O)Cc2c-1nc1cc3c(cc1c2CNC(=O)[C@@H](N)C(C)C)OCO3` , IC50: 1

Recorded result, `CC[C@@]1(O)C(=O)OCc2c1cc1n(c2=O)Cc2c-1nc1cc3c(cc1c2CNC(=O)[C@H](C)N)OCO3` , IC50: 6

Recorded result, `CC[C@@]1(O)C(=O)OCc2c1cc1n(c2=O)Cc2c-1nc1cc3c(cc1c2CNC(=O)[C@@H](N)[C@@H](C)O)OCO3` , IC50: 8

Recorded result, `CC[C@@]1(O)C(=O)OCc2c1cc1n(c2=O)Cc2c-1nc1cc3c(cc1c2CNC(=O)[C@@H](N)CC(=O)O)OCO3` , IC50: 99
